- measured.on: VLA-4 (Homo sapiens, UniProt P05556+P13612)
- Construct: endogenous in cells
- Sequence (P13612 34-1032): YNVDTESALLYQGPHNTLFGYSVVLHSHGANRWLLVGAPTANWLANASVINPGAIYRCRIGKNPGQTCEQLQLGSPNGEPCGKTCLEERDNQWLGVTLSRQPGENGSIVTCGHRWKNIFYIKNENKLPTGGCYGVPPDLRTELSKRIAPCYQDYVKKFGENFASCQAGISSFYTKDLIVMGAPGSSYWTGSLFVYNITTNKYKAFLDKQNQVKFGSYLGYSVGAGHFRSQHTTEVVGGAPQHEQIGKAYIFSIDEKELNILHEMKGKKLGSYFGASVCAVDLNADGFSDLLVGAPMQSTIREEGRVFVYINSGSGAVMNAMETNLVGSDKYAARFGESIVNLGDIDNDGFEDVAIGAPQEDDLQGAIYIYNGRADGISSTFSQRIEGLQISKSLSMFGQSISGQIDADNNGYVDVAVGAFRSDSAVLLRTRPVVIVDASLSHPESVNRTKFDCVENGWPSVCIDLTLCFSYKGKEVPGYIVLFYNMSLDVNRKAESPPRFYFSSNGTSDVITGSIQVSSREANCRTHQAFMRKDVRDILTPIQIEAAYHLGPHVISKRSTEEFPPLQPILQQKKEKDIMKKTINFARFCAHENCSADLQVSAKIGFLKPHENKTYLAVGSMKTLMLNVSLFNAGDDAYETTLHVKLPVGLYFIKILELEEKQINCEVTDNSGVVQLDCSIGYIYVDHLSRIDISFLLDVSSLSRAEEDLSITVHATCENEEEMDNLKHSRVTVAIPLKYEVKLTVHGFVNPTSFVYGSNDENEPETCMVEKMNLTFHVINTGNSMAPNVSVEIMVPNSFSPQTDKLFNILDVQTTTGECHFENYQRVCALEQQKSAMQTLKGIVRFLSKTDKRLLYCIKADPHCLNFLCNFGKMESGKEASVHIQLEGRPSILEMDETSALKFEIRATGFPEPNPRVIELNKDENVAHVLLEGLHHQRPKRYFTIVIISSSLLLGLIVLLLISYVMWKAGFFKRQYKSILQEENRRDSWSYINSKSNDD
- Sequence (P05556 21-798): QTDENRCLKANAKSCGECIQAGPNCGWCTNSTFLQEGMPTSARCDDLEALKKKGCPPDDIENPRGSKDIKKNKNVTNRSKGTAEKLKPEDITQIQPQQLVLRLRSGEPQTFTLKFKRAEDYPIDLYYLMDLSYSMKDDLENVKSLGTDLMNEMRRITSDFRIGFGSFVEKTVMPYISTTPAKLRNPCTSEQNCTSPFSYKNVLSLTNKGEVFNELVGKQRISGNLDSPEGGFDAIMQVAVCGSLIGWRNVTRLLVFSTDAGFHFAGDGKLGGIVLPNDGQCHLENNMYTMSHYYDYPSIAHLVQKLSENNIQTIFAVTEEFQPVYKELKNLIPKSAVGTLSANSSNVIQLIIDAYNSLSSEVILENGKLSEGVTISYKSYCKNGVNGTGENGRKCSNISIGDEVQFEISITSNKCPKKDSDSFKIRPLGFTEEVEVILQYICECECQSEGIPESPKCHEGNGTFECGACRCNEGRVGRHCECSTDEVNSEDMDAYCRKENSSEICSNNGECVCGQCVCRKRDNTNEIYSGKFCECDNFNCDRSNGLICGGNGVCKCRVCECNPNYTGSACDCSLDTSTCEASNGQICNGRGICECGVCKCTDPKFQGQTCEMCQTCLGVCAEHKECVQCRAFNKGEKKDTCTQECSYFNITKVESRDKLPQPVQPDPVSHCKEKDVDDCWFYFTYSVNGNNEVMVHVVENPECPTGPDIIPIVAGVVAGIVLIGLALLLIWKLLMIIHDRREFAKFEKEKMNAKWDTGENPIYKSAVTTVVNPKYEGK
- run.description: VLA-4 direct binding assay (VCAM-IgG alkaline phosphatase conjugate binding to Jurkat cells)
- protocol.conditions: Table 1, Structure-Activity; assay and unit inferred; read-out: Act
// log10 of IC50 lookup, one value per entry
Friendly reminder: values = log10 of IC50, unit nM.

In the examples that follow, each entry is paired with its recorded log10 of IC50.
CC(CC(=O)Nc1ccc(NC(=O)Nc2ccccc2)cc1)C(=O)N[C@H](C)CC(=O)O (stereo partly drawn) [SX43]
2.39
Cc1ccccc1NC(=O)Nc1ccc(NC(=O)[C@@H]2CCCN2C(=O)CC[C@@H](C)CC(=O)O)cc1 [CX9]
2.52
COc1cccc(C(=O)N(CCC(=O)O)CC(=O)N(CCC(C)C)CC(=O)Nc2ccc3c(c2)C(=O)CCCC3)c1 [AX3]
4.18
Cc1ccccc1NC(=O)Nc1ccc(CC(=O)Nc2cccc(S(=O)(=O)NC(C)CC(=O)O)c2)cc1 (stereo not drawn) [RX2]
4.03
COc1cccc(C(=O)N(CCC(=O)O)CC(=O)N(CCC(C)C)CC(=O)Nc2cccc(OCCOc3ccccc3)c2)c1 [AX13]
3.50
COc1ccc(C(CC(=O)O)NC(=O)C(CC(=O)NCc2ccccc2)CC(C)C)cc1 (stereo not drawn) [SX28]
2.86
Cc1ccccc1NC(=O)Nc1ccc(NC(=O)CC(CC(C)C)C(=O)NC(C)CC(=O)O)cc1 (stereo not drawn) [SX50]
2.22
CC(C)CN(CC(=O)Nc1ccc(NC(=O)Nc2ccccc2)cc1)C(=O)CN(CCC(=O)O)C(=O)c1ccccc1 [AX28]
2.18

Ask: Param readout = log10 of IC50; param system = VLA-4 (Homo sapiens, UniProt P05556+P13612); param query = Cc1ccccc1NC(=O)Nc1ccc(NC(=O)c2ccc3c(c2)C(=O)N(CCC(=O)O)CC(=O)N3C)cc1 [BX17] ; response: value
Reply: 2.99

Value source: patent US6686350B1
